molecular target: human IDO1/HEK293 cells (Homo sapiens, UniProt P14902); assay: HEK Human IDO-1 cell-based IDO inhibition assay (kynurenine production); conditions: HEK293 cells stably expressing human IDO1, 20 hours incubation, absorbance at 490 nm; read-out: HEK Human IDO-1 Bio Activity (IDO IC50)
Sequence (P14902 whole entry): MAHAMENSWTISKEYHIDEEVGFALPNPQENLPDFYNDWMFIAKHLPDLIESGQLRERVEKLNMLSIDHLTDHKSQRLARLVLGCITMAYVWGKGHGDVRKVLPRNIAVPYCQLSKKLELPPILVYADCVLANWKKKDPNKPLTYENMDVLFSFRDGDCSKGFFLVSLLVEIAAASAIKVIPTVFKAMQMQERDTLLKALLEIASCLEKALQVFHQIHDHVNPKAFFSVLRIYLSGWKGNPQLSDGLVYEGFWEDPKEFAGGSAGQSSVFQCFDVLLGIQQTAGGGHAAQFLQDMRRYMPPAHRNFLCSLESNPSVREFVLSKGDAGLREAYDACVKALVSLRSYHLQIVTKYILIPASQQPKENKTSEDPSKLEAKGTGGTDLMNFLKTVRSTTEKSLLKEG
The compounds listed here are annotated with their IC50.

{"compound": "CC(NC(=O)c1ccc(Cl)cc1)C1CCC(c2ccc(C(F)(F)F)nc2)CC1 (single isomer, unassigned) [Example 217]", "IC50": "< 2000 nM"}
{"compound": "CC(NC(=O)c1ccc(Cl)cc1)C1CCC(c2ccc(C(F)(F)F)nc2)CC1 (single isomer, unassigned) [Example 219]", "IC50": "< 250 nM"}
{"compound": "COc1ccc(CN[C@H]2CC[C@H](c3ccccc3)CC2)cc1 [Example 97]", "IC50": "< 250 nM"}
{"compound": "CC[C@H](NC(=O)c1ccc(Cl)cc1)[C@H]1CC[C@H](c2cnc3ccccc3c2)CC1 (single isomer, unassigned) [Example 203d]", "IC50": "< 50 nM"}
{"compound": "C[C@@H](NC(=O)c1ccc(-c2ccc(S(C)(=O)=O)nc2)cc1)[C@H]1CC[C@@H](c2ccnc3ccc(F)cc32)CC1 [Example 237]", "IC50": "< 2000 nM"}
{"compound": "Cc1c(C2CCC(C(C)NC(=O)c3ccc(-c4ccccc4)cc3)CC2)ccnc1F (single isomer, unassigned) [Example 223]", "IC50": "< 50 nM"}
{"compound": "COc1ccc(C(=O)N[C@H](C)[C@H]2CC[C@@H](c3ccnc4ccc(F)cc43)CC2)cc1 [Example 68]", "IC50": "< 50 nM"}
{"compound": "COc1nccc(-c2ccc(C(=O)N[C@H](C)[C@H]3CC[C@@H](c4ccnc5ccc(F)cc54)CC3)cc2)n1 [Example 236]", "IC50": "< 50 nM"}
{"compound": "C[C@@H](NC(=O)c1ccc(-c2ncc(C#N)s2)cc1)[C@H]1CC[C@@H](c2ccnc3ccc(F)cc32)CC1 [Example 253]", "IC50": "< 50 nM"}
{"compound": "CC1(CNC(=O)c2ccc(Cl)cc2)CCN(c2ccnc(C(F)(F)F)c2)CC1 [Example 227]", "IC50": "< 2000 nM"}
{"compound": "O=C(NCC1(O)CCN(c2ccnc3ccc(F)cc23)CC1)c1ccc(Cl)cc1 [Example 81]", "IC50": "< 2000 nM"}
{"compound": "C[C@@H](NC(=O)c1ccccc1F)[C@H]1CC[C@@H](c2ccnc3ccc(F)cc32)CC1 [Example 54]", "IC50": "< 50 nM"}
{"compound": "O=C(Nc1ccc(Cl)cc1)N[C@H]1CC[C@@H](c2ccnc3ccc(F)cc32)CC1 [Example 125]", "IC50": "< 250 nM"}
